pIC50 for UniProtKB P05177 - collated from the literature.
Target: UniProtKB P05177
Sequence (P05177 whole entry): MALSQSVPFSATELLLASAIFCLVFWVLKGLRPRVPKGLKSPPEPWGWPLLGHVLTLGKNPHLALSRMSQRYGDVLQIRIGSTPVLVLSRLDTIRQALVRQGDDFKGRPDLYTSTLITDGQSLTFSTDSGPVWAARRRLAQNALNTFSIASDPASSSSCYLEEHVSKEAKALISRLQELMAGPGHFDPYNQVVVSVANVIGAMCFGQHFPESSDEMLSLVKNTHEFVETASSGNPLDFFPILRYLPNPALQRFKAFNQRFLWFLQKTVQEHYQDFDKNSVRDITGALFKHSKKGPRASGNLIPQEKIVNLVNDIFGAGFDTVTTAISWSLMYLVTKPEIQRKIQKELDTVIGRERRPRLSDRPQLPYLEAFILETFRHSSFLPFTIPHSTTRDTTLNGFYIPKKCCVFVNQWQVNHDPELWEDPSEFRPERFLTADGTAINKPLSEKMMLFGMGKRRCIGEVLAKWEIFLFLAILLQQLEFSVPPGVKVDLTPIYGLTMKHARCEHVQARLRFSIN
pIC50: −log10 of the molar value.

compound	assayed-target	pIC50
N#Cc1ccc(COc2ccc3nc(N)sc3c2)cc1	UniProtKB P05177	< 4.60
COc1cc2c(cc1OCCCCCCC(=O)O)C[C@@H](C(C)C)n1cc(C(=O)O)c(=O)cc1-2	UniProtKB P05177	< 5.00
Cn1cnc(S(=O)(=O)N2C[C@@H]3[C@H](C2)[C@@]3(CNC(=O)c2ccccc2C(F)(F)F)c2ccccn2)c1	UniProtKB P05177	< 4.52
COc1ccc(OC)c2c1c(OC)cc1c(=O)c(O)c(-c3ccccc3)oc12	UniProtKB P05177	7.46

Please give the measured pIC50 for this compound: O=C1CC(c2ccccc2)CC(O)=C1Sc1ccccc1Cl (stereo not given)
< 5.30
